System: MV4-11
assay-method-text: Antiproliferative activity against human MV4-11 cells incubated for 72 hrs by CCK-8 assay
Format: functional, cell-based
measurement-context: MV4-11, 72 h
pIC50: −log10 of the molar value.
recorded-metric: pIC50

Field: example entries. Status: answers known.
smiles-input: Cc1cccc(Nc2ncc3c(n2)N(C2CCCC2)Cc2nnc(C)n2-3)c1
tested-on: MV4-11
recorded-metric: pIC50
recorded-result: < 4.52
--
smiles-input: Cc1nnc2n1-c1cnc(Nc3ccc(C(C)(C)C)cc3)nc1N(C1CCCC1)C2
tested-on: MV4-11
recorded-metric: pIC50
recorded-result: < 4.52

Continue with the compound presented below.
Summary: Cc1nnc2n1-c1cnc(Nc3ccc(F)cc3)nc1N(C1CCCC1)C2 , MV4-11, pIC50 = < 4.52

---

Tested on: MV4-11
assay-method-text: Antiproliferative activity against human MV4-11 cells incubated for 72 hrs by CCK-8 assay
Format: functional, cell-based
measurement-context: MV4-11, 72 h
Provide the reported pIC50 of each item.
Answers are plain numbers, as −log10 of the molar value.

Field: example entries. Status: answers known.
smiles-input: Cc1nnc2n1-c1cnc(Nc3ccccc3[N+](=O)[O-])nc1N(C1CCCC1)C2
recorded-result: 4.97

smiles-input: Cc1ccccc1Nc1ncc2c(n1)N(C1CCCC1)Cc1nnc(C)n1-2
recorded-result: 5.07

Continue with the molecule presented below.
Just so you know, measured pIC50 for Cc1ccc(Nc2ncc3c(n2)N(C2CCCC2)Cc2nnc(C)n2-3)cc1 came out at 5.13
